Origin of values: a polymer gas permeability compilation

molecule: *CC(*)(C)C(=O)OCC(F)(F)C(F)(F)C(F)(F)C(F)(F)C(F)(F)C(F)(F)C(F)(F)F (repeat unit)
O2 permeability [Barrer]: 30

molecule: *Oc1c(C)cc(C(c2cc(C)c(OC(*)=O)c(C)c2)(C(F)(F)F)C(F)(F)F)cc1C (repeat unit)
O2 permeability [Barrer]: 20.9

molecule: *C(=C(*)c1ccc2c(c1)CCC2)c1ccc([Si](C)(C)C)cc1 (repeat unit)
O2 permeability [Barrer]: 450

molecule: *c1ccc(Oc2ccc(N3C(=O)c4ccc(S(=O)(=O)c5ccc6c(c5)C(=O)N(*)C6=O)cc4C3=O)cc2)cc1 (repeat unit)
O2 permeability [Barrer]: 0.2

----------
Doc: threshold 0.7 Barrer (exclusive). Items with CH4 permeability beneath it return Yes; others return No.

compound: *CC[Si](C)(C)c1ccc([Si](*)(C)C)cc1 (repeat unit)
assigned_label: Yes
//
compound: *c1cc(C)c2c(c1)S(=O)(=O)c1cc(N3C(=O)c4ccc(-c5ccc6c(c5)C(=O)N(*)C6=O)cc4C3=O)cc(C)c1-2 (repeat unit)
assigned_label: Yes
//
compound: *c1ccc2c(c1)C1c3ccccc3C2c2ccc(N3C(=O)c4ccc(C(c5ccc6c(c5)C(=O)N(*)C6=O)(C(F)(F)F)C(F)(F)F)cc4C3=O)cc21 (repeat unit)
assigned_label: No
//
compound: *C(=O)c1ccc(C(c2ccc3c(c2)C(=O)n2c-3nc3cc4nc(*)n(*)c4cc32)(C(F)(F)F)C(F)(F)F)cc1* (repeat unit)
assigned_label: No
//
compound: *c1ccc(Sc2ccc(Sc3ccc(N4C(=O)c5ccc(C(c6ccc7c(c6)C(=O)N(*)C7=O)(C(F)(F)F)C(F)(F)F)cc5C4=O)cc3)cc2)cc1 (repeat unit)
assigned_label: Yes
//
compound: *C(=C(*)c1ccc2c(c1)C(C)(C)c1ccccc1-2)c1ccc(F)c(F)c1 (repeat unit)
assigned_label: No

----------
Below, each of the compounds is paired with its reported H2 permeability value.
quantity_name: H2 permeability (Barrer)

compound: *Oc1ccc(C(C)(C)c2ccc(OC(*)=O)cc2)cc1 (repeat unit)
unit_symbol: Barrer
measured: 13
--
compound: *CC(*)(F)F (repeat unit)
unit_symbol: Barrer
measured: 0.538
--
compound: *Oc1ccc(C(C)(C)c2ccc(Oc3c(F)c(F)c(COC(C4CCCC(C(OCc5c(F)c(F)c(*)c(F)c5F)(C(F)(F)F)C(F)(F)F)C4)(C(F)(F)F)C(F)(F)F)c(F)c3F)cc2)cc1 (repeat unit)
unit_symbol: Barrer
measured: 17
--
compound: *c1ccc(Oc2ccc(N3C(=O)c4ccc(S(=O)(=O)c5ccc6c(c5)C(=O)N(*)C6=O)cc4C3=O)cc2)cc1 (repeat unit)
unit_symbol: Barrer
measured: 5.61
--
compound: *Oc1cccc(C(C)(C)c2ccc(Oc3ccc(S(=O)(=O)c4ccc(*)cc4)cc3)cc2)c1 (repeat unit)
unit_symbol: Barrer
measured: 8
--
compound: *C(=C(*)c1ccc2c(c1)C(C)(C)c1ccccc1-2)c1cccc(F)c1 (repeat unit)
unit_symbol: Barrer
measured: 9900
--
compound: *Oc1c(C)cc(-c2cc(C)c(Oc3ccc(S(=O)(=O)c4ccc(*)cc4)cc3)c(C)c2C)c(C)c1C (repeat unit)
unit_symbol: Barrer
measured: 63
--
compound: *c1ccc(Oc2ccc(-n3c(=O)c4cc5c(=O)n(*)c(=O)c5cc4c3=O)cc2)cc1 (repeat unit)
unit_symbol: Barrer
measured: 7.52
--
compound: *Oc1cc(C)c(C(c2cc(C(C)C)c(Oc3ccc(S(=O)(=O)c4ccc(*)cc4)cc3)cc2C)c2ccccc2C(=O)O)cc1C(C)C (repeat unit)
unit_symbol: Barrer
measured: 49.6
--
compound: *CC1CC(C*)C2C1C([Si](O[Si](C)(C)C)(O[Si](C)(C)C)O[Si](C)(C)C)C2[Si](O[Si](C)(C)C)(O[Si](C)(C)C)O[Si](C)(C)C (repeat unit)
unit_symbol: Barrer
measured: 460
--
compound: *Oc1ccc(C(C)(C)c2ccc(Oc3ccc(C(=O)c4ccc(C(=O)c5ccc(*)cc5)cc4)cc3)cc2)cc1 (repeat unit)
unit_symbol: Barrer
measured: 9.07
--
compound: *c1ccc(Oc2ccc(N3C(=O)c4ccc(C(=O)c5ccc6c(c5)C(=O)N(*)C6=O)cc4C3=O)cc2)cc1 (repeat unit)
unit_symbol: Barrer
measured: 4.19
--
compound: *c1ccc(Cc2ccc(N3C(=O)c4ccc(Oc5ccc(C(c6ccc(Oc7ccc8c(c7)C(=O)N(*)C8=O)cc6)(C(F)(F)F)C(F)(F)F)cc5)cc4C3=O)cc2)cc1 (repeat unit)
unit_symbol: Barrer
measured: 8.31
--
compound: *c1c(C)cc(-c2cc(C)c(N3C(=O)c4cc5c(cc4C3=O)S(=O)(=O)c3cc4c(cc3S5(=O)=O)C(=O)N(*)C4=O)c(C)c2)cc1C (repeat unit)
unit_symbol: Barrer
measured: 58

----------
Below, each of the molecules is paired with its reported CO2 permeability value.

molecule: *c1ccc(Sc2ccc(Sc3ccc(Sc4ccc(Sc5ccc(N6C(=O)c7ccc(C(c8ccc9c(c8)C(=O)N(*)C9=O)(C(F)(F)F)C(F)(F)F)cc7C6=O)cc5)cc4)cc3)cc2)cc1 (repeat unit)
CO2 permeability / Barrer: 6.62
--
molecule: *c1ccc(C(c2ccc(-c3nnc(*)o3)cc2)(C(F)(F)F)C(F)(F)F)cc1 (repeat unit)
CO2 permeability / Barrer: 123
--
molecule: *Cc1ccc(C*)c(C)c1 (repeat unit)
CO2 permeability / Barrer: 0.265
--
molecule: *C(=C(*)c1ccc2c(c1)CCC2)c1ccc([Si](C)(C)C)cc1 (repeat unit)
CO2 permeability / Barrer: 2000
--
molecule: *c1ccc(-c2ccc(Oc3ccc(C4(c5ccc(Oc6ccc(-c7ccc(-n8c(=O)c9cc%10c(=O)n(*)c(=O)c%10cc9c8=O)cc7)cc6C(F)(F)F)cc5)c5ccccc5C(=O)N4c4ccccc4)cc3)c(C(F)(F)F)c2)cc1 (repeat unit)
CO2 permeability / Barrer: 39.6
--
molecule: *=CC1CCC(C=*)C1 (repeat unit)
CO2 permeability / Barrer: 15.4

----------
Below, each of the compounds is paired with its reported CO2 permeability value.
quantity_name: CO2 permeability

compound: *Oc1c(C)cc(C(C)(C)c2cc(C)c(OC(=O)c3cc(C(*)=O)cc(C(C)(C)C)c3)c(C)c2)cc1C (repeat unit)
measured: 45.3 Barrer
//
compound: *CCCCO* (repeat unit)
measured: 170 Barrer
//
compound: *c1ccc(-c2ccc(C(*)(C(F)(F)F)C(F)(F)F)cc2)cc1 (repeat unit)
measured: 470 Barrer
//
compound: *Nc1ccc(C(c2ccc(NC(=O)c3ccc(Oc4cc(C(C)(C)C)c(Oc5ccc(C(*)=O)cc5)cc4C(C)(C)C)cc3)cc2)(C(F)(F)F)C(F)(F)F)cc1 (repeat unit)
measured: 36 Barrer
//
compound: *O[Si](*)(C)C (repeat unit)
measured: 4180 Barrer
//
compound: *c1ccc2c(c1)C1(CC2(C)C)CC(C)(C)c2ccc(N3C(=O)c4cc5c(cc4C3=O)C3(CC(C)(C)c4cc6c(cc43)C(=O)N(*)C6=O)CC5(C)C)cc21 (repeat unit)
measured: 1520 Barrer
//
compound: *Oc1ccc(Oc2ccc(C(=O)c3ccc(*)cc3)cc2)c(-c2cc(C(F)(F)F)cc(C(F)(F)F)c2)c1 (repeat unit)
measured: 8.7 Barrer
//
compound: *C(=C(*)c1ccc(O[Si](C)(C)C(C)(C)C)cc1)c1ccc(F)cc1 (repeat unit)
measured: 800 Barrer

----------
Below, each of the compounds is paired with its reported log10(O2 permeability) value.
quantity_name: log10(O2 permeability) (log10 of the value in Barrer)

compound: *c1ccc(Oc2ccc(C3(c4ccc(Oc5ccc(N6C(=O)c7ccc(C(c8ccc9c(c8)C(=O)N(*)C9=O)(C(F)(F)F)C(F)(F)F)cc7C6=O)c(C)c5)cc4)OC(=O)c4ccccc43)cc2)cc1C (repeat unit)
measured: 0.76

compound: *Oc1cc2c(cc1O*)C1(CC2(C)C)CC(C)(C)c2cc3c(cc21)Oc1c(c(C(F)(F)F)c(*)c(*)c1S(=O)(=O)c1ccccc1)O3 (repeat unit)
measured: 2.64

compound: *c1ccc(Cc2ccc(N3C(=O)c4ccc(-c5ccc6c(c5)C(=O)N(*)C6=O)cc4C3=O)cc2Cl)c(Cl)c1 (repeat unit)
measured: -1.02

compound: *Oc1c(C)cc(C(C)(C)c2cc(C)c(OC(=O)c3cc(C(*)=O)cc(C(C)(C)C)c3)c(C)c2)cc1C (repeat unit)
measured: 1.10

compound: *Oc1ccc(C(=O)c2ccc(-c3ccc(C(=O)c4ccc(Oc5ccc(C(C)(C)c6ccc(*)cc6)cc5)cc4)cc3)cc2)cc1 (repeat unit)
measured: -0.12

compound: *Oc1cc2c(cc1O*)C1(CC2(C)C)CC(C)(C)c2cc3c(cc21)Oc1c(C#N)c(*)c(*)c(C#N)c1O3 (repeat unit)
measured: 2.96

compound: *CC(*)OCc1ccccc1 (repeat unit)
measured: 0.37

compound: *Oc1ccc(C(c2ccc(Oc3ccc(S(=O)(=O)c4ccc(*)cc4)cc3)cc2)(C(F)(F)F)C(F)(F)F)cc1 (repeat unit)
measured: 0.53

compound: *Oc1ccc(C(C)(C)c2ccc(Oc3ccc(C(=O)c4ccc(*)cc4)cc3)cc2)cc1 (repeat unit)
measured: 0.00

compound: *c1ccc(Oc2ccc(N3C(=O)c4ccc(-c5ccc6c(c5)C(=O)N(*)C6=O)cc4C3=O)cc2)cc1 (repeat unit)
measured: -0.76

compound: */C=C/c1ccc(*)cc1[Si](C)(C)CCCCCCCCCCCCCCCCCC (repeat unit)
measured: 1.08

compound: *Oc1ccc(C(C)(C)c2ccc(OC(=O)c3cc(C(*)=O)cc(C(C)(C)C)c3)cc2)cc1 (repeat unit)
measured: 0.77

compound: *c1cccc(N2C(=O)c3ccc(Oc4ccc(Oc5ccc6c(c5)C(=O)N(*)C6=O)cc4)cc3C2=O)c1 (repeat unit)
measured: -0.83

compound: *c1ccc(Oc2ccc(C(c3ccc(Oc4ccc(N5C(=O)c6ccc(-c7ccc8c(c7)C(=O)N(*)C8=O)cc6C5=O)cc4)cc3)(C(F)(F)F)C(F)(F)F)cc2)cc1 (repeat unit)
measured: 0.20

compound: *Nc1ccc(C(c2ccc(NC(=O)c3cccc(C(*)=O)c3)cc2)(C(F)(F)F)C(F)(F)F)cc1 (repeat unit)
measured: 0.38

compound: *Oc1ccc(C(C)(C)c2ccc(OC(=O)c3cccc(C(*)=O)c3)c(C(C)C)c2)cc1C(C)C (repeat unit)
measured: 0.21

compound: *CC(*)c1ccc([Si](C)(C)C)cc1 (repeat unit)
measured: 1.75

compound: *c1ccc(C(C)(C)c2ccc(-c3nc4cc(-c5ccc6[nH]c(*)nc6c5)ccc4[nH]3)cc2)cc1 (repeat unit)
measured: -0.22

compound: *c1ccc(-c2nnc(-c3cccc(-c4nnc(*)n4-c4ccccc4)c3)n2-c2ccccc2)cc1 (repeat unit)
measured: 0.06

compound: *c1ccc(Oc2ccc(N3C(=O)c4ccc(Oc5ccc6c(c5)C(=O)N(*)C6=O)cc4C3=O)cc2)cc1 (repeat unit)
measured: -0.74

compound: *CC(*)(C)C (repeat unit)
measured: 0.46

compound: *c1ccc(*)n1C (repeat unit)
measured: 0.31

compound: *NCC(C)(C)CC(C)CCNC(=O)c1ccc(C(*)=O)cc1 (repeat unit)
measured: -1.04

compound: *c1ccc(N(c2ccc(N3C(=O)c4ccc(C(c5ccc6c(c5)C(=O)N(*)C6=O)(C(F)(F)F)C(F)(F)F)cc4C3=O)cc2)c2ccc(N(c3ccccc3)c3ccccc3)cc2)cc1 (repeat unit)
measured: 0.29

compound: *c1ccc(Sc2ccc(Sc3ccc(Sc4ccc(Sc5ccc(N6C(=O)c7ccc(C(c8ccc9c(c8)C(=O)N(*)C9=O)(C(F)(F)F)C(F)(F)F)cc7C6=O)cc5)cc4)cc3)cc2)cc1 (repeat unit)
measured: 0.16

compound: *C(=C(*)c1ccc2c(c1)C(C)(C)c1cc(Br)ccc1-2)c1ccccc1 (repeat unit)
measured: 3.30

compound: *C(=C(*)c1ccc([Si](C)(C)C)cc1)c1ccc(O[Si](C)(C)C(C)(C)C)cc1 (repeat unit)
measured: 2.92

compound: *c1ccc2c3c(ccc2c1)OC1CC3c2c(ccc3cc(N4C(=O)c5ccc(C(c6ccc7c(c6)C(=O)N(*)C7=O)(C(F)(F)F)C(F)(F)F)cc5C4=O)ccc23)O1 (repeat unit)
measured: 0.77

compound: *OC1OC(OC(C)=O)C(*)C(O)C1OC(C)=O (repeat unit)
measured: -0.13
